Each recorded value in this set is attributed to the supplement of paper PMC12042874.

# ASSAY_INFO: amyloid nucleation score (Sup35N fusion, yeast selection) (log enrichment); library NNK2; higher = more nucleation; inactive = no reads after selection;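 further: zero at mode of non-aggregating sequences after 7 days selection at 30°C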
RESULT_TYPE: amyloid nucleation score

Answered examples (5):
THTSLLSLVP -0.291
KVTARPFRQC 5
GVHMSDRVNTMSD -0.129
CMGFLYTNTYCGGILIELFI inactive
SDMLLVISWFSFVKNK 4.05

## Input Consider the substance `TASKILSGIASYDSRIIQPE` and give its measured amyloid nucleation score.
## Output -0.447

## Input Same thing, different substance: `IFFALNSTPPYYIYPEFKLQ`
## Output inactive

## Input Same thing, different substance: `VEWEVMGVPDSKLDRGTGTV`
## Output 1.09

## Input Same thing, different substance: `VNDKFHFILF`
## Output 0.019

## Input Same thing, different substance: `SGIAWSLVNVGLGYHYMQGG`
## Output 0.178

## Input Same thing, different substance: `NVLSRYYQPYMAPPENKAWD`
## Output -0.277

## Input Same thing, different substance: `SLQVDRNWGGS`
## Output 0.105

## Input Same thing, different substance: `RGINDILRFKS`
## Output 0.494

## Input Same thing, different substance: `YTAFLFICTRALLMPDMKFL`
## Output inactive

## Input Same thing, different substance: `QHLFFIYSCYTKLGGTLAGE`
## Output 0.746

====

# ASSAY_INFO: amyloid nucleation score (Sup35N fusion, yeast selection) (log enrichment); library NNK3; higher = more nucleation; inactive = no reads after selection
RESULT_TYPE: amyloid nucleation score

RYGFADSYMLFLFRYTPSSG inactive
VPDRCLD inactive
NLLSDSVDMYINAGVDILLA inactive
KVYKLGVSRRSVKAT inactive
SWMTTRKGGDVALHASLFRM inactive

## Input Consider the substance `YSTFLFQGYLFLEPEYSGCR` and give its measured amyloid nucleation score.
## Output inactive

## Input Same thing, different substance: `SVWLASCYHLIWVELGRWDI`
## Output inactive

## Input Same thing, different substance: `RGMISVMPSVIGPAL`
## Output inactive

## Input Same thing, different substance: `CCFNMW`
## Output 1.46

## Input Same thing, different substance: `GNSASLEEVVLMEEGGVLCA`
## Output inactive

## Input Same thing, different substance: `IQLICEAIAGFLYNVIFVVL`
## Output inactive

====

Exercise: for every item that follows, state its recorded amyloid nucleation score.
# ASSAY_INFO: amyloid nucleation score (Sup35N fusion, yeast selection) (log enrichment); library NNK2; higher = more nucleation; inactive = no reads after selection
Please reply with the value in numeric form only.

## Input Consider the substance `GMNFHRGLMLNGVCIFSLLW` and give its measured amyloid nucleation score.
## Output 0.491

## Input Same thing, different substance: `VTRVWYRTSDCDAYSHGNFL`
## Output 0.991

## Input Same thing, different substance: `CIVMLRTIIQRSFNMSMTHY`
## Output 3.2

## Input Same thing, different substance: `TVMYSGVG`
## Output 0.501

## Input Same thing, different substance: `SFPLSADEFNCSI`
## Output -0.314

## Input Same thing, different substance: `NRKYTILVLDLLEGSLCARE`
## Output 0.599

## Input Same thing, different substance: `YLKRPRPRRLGSP`
## Output 0.405

## Input Same thing, different substance: `GVSSKKV`
## Output 4.77

====

# ASSAY_INFO: amyloid nucleation score (Sup35N fusion, yeast selection) (log enrichment); library NNK2; higher = more nucleation; inactive = no reads after selection
RESULT_TYPE: amyloid nucleation score
Please reply with the value in numeric form only.

## Input Consider the substance `MLLIRGHILIPGADLTIIPE` and give its measured amyloid nucleation score.
## Output -0.692

## Input Same thing, different substance: `SSSREALCRKHDGVL`
## Output 0.905

## Input Same thing, different substance: `NYKRFCSCMLDH`
## Output -0.665

## Input Same thing, different substance: `DGSMFGPDVCFYIVSLILPF`
## Output 5.03

## Input Same thing, different substance: `SLFTYGVISDHMGNMVPWND`
## Output -0.352

## Input Same thing, different substance: `LVYLIGSGNLQRISFPQRRV`
## Output 5.51

## Input Same thing, different substance: `RWSGPGCTLSTGMWTFIPQV`
## Output -0.145

## Input Same thing, different substance: `VGGRSGE`
## Output -0.159

## Input Same thing, different substance: `IGSWVVEFGRFGYCFHGVID`
## Output 3.19

## Input Same thing, different substance: `YISGWYCVNTVSRNNSYRES`
## Output -1.72

## Input Same thing, different substance: `VSNRVLEMVSKEVASAKNQL`
## Output 0.288

## Input Same thing, different substance: `IDLFFAYSHRV`
## Output 4.5

## Input Same thing, different substance: `MVKSHLMTKFCD`
## Output -0.394

## Input Same thing, different substance: `LLYQKKDEWLGASYSLQKLS`
## Output -0.686

====

# ASSAY_INFO: amyloid nucleation score (Sup35N fusion, yeast selection) (log enrichment); library NNK2; higher = more nucleation; inactive = no reads after selection
RESULT_TYPE: amyloid nucleation score
Please reply with the value in numeric form only.

## Input Consider the substance `YLLHNSLKFRVHHSL` and give its measured amyloid nucleation score.
## Output -0.68

## Input Same thing, different substance: `IGILSREGYWGGNRFLGYQL`
## Output -1.32

## Input Same thing, different substance: `RNIIFTWGLCC`
## Output 5.91

## Input Same thing, different substance: `YFPPGDA`
## Output -0.47

## Input Same thing, different substance: `SVLLRDMGILYVMRNYYWPL`
## Output -0.033

## Input Same thing, different substance: `TSSSYTSTFDRGLMNLRTCL`
## Output -0.039

## Input Same thing, different substance: `CEFLMLFREFLDW`
## Output 4.59

## Input Same thing, different substance: `SRKSFLLCILLCSITLPLAR`
## Output -1.09

## Input Same thing, different substance: `VEGVFLISMPPWPFYRLPSR`
## Output 0.961

## Input Same thing, different substance: `DGTAFMARPKETSIPDVSSS`
## Output -0.593

## Input Same thing, different substance: `QDMQLVIYWSYKLYQVFLRA`
## Output -0.357

## Input Same thing, different substance: `GMTVNYRRMVQNQRMFGPGI`
## Output -0.42

## Input Same thing, different substance: `SFFFPWCVTGLRVSHTTAKF`
## Output -0.237

## Input Same thing, different substance: `MGLTEEVIKWQGHVGWTWAG`
## Output 1.55

## Input Same thing, different substance: `ILHPADQNSCT`
## Output -1.26

## Input Same thing, different substance: `KSEAGYA`
## Output 0.658

====

# ASSAY_INFO: amyloid nucleation score (Sup35N fusion, yeast selection) (log enrichment); library NNK2; higher = more nucleation; inactive = no reads after selection
Think of -0.03 as a floor: if amyloid nucleation score stands on it or above, it is Fulfilled; beneath it, Not fulfilled.

## Input Check if amyloid nucleation score >= -0.03 (inclusive). Item: `GYCETNFGGCVPDWMEMLQR`
## Output Fulfilled

## Input Same thing, different substance: `GLESFGDYSVKIPLGDLFGP`
## Output Fulfilled

## Input Same thing, different substance: `LDMITTINS`
## Output Not fulfilled

## Input Same thing, different substance: `LIVSKWVHLWGYNALDNKEK`
## Output Not fulfilled

## Input Same thing, different substance: `RVIWRQWYNTL`
## Output Fulfilled

## Input Same thing, different substance: `MHLCADPAGFWDWN`
## Output Not fulfilled

====

# ASSAY_INFO: amyloid nucleation score (Sup35N fusion, yeast selection) (log enrichment); library NNK1; higher = more nucleation; inactive = no reads after selection
RESULT_TYPE: amyloid nucleation score

RLHSKRAHTRS inactive
IIEWFSWWARMIFDDFPYYE inactive
YYTNWQEGYRVGRFRCDGHN inactive

====

# ASSAY_INFO: amyloid nucleation score (Sup35N fusion, yeast selection) (log enrichment); library NNK1; higher = more nucleation; inactive = no reads after selection
Exercise: for every item that follows, state its recorded amyloid nucleation score.

## Input Consider the substance `PALWWSMYSIQCPEEIGGAV` and give its measured amyloid nucleation score.
## Output 0.405

## Input Same thing, different substance: `PVQLRFRSSNIWTLMNQVFI`
## Output 0.612

## Input Same thing, different substance: `QYPLMK`
## Output 0.319

## Input Same thing, different substance: `GVQFQVVRMSCSVLSARLRL`
## Output 1.29

## Input Same thing, different substance: `HPMITRFLAD`
## Output 0.413

## Input Same thing, different substance: `GSMDCLYVSYLGNYENRYRG`
## Output 0.232

## Input Same thing, different substance: `STRGHNMTEINVWMVHNILT`
## Output -0.116

## Input Same thing, different substance: `RKVSANRFSYWRMGKGMYPV`
## Output 0.042

## Input Same thing, different substance: `CSCVVVNCNWYG`
## Output 8.61

## Input Same thing, different substance: `YVAISHGQTPSLYL`
## Output -0.827

## Input Same thing, different substance: `PRPQLPVKYLYSRLIGETCG`
## Output 3.25

## Input Same thing, different substance: `MCRVHFRNVTFCGALARSVL`
## Output -0.751

## Input Same thing, different substance: `LIRTLANWLSIPHVLI`
## Output -0.351

## Input Same thing, different substance: `TLFCSGSNAKAGCSEHYYFC`
## Output 3.04

## Input Same thing, different substance: `LYTKFFEAMWQVWRFERTQR`
## Output 2.53

## Input Same thing, different substance: `WKNLGQV`
## Output -0.327

## Input Same thing, different substance: `GVALFVIGLNSQIVANSYTS`
## Output 6.29

## Input Same thing, different substance: `WGIPMVGSRGPMCTKVGFRK`
## Output 0.141

## Input Same thing, different substance: `TMLWIVIARNFECEMGFNM`
## Output 3.1

## Input Same thing, different substance: `CYSMNEFFGNLHVSTRTHGK`
## Output -0.944

## Input Same thing, different substance: `FGPRSDAVLVLYFSYVSPLD`
## Output -1.79

## Input Same thing, different substance: `GKQHSLS`
## Output -1.44

## Input Same thing, different substance: `EWVVWVDCRGRYADNVSGGA`
## Output -0.558

## Input Same thing, different substance: `AGCHGSDSHPFRQPSPLLLF`
## Output 0.462

## Input Same thing, different substance: `ALRNCQNMRPYKTPVRPTVA`
## Output 1.34

## Input Same thing, different substance: `ASFVSLVSAPESFNGFAVQN`
## Output -0.006

## Input Same thing, different substance: `HRCQSSSRRPMNGFGTCQRS`
## Output 0.321
